Let's look at some compounds and their measured IC50.
- system: p38 MAPK alpha (MAPK14: Invitrogen) (Homo sapiens, UniProt Q16539)
- Sequence (Q16539 whole entry): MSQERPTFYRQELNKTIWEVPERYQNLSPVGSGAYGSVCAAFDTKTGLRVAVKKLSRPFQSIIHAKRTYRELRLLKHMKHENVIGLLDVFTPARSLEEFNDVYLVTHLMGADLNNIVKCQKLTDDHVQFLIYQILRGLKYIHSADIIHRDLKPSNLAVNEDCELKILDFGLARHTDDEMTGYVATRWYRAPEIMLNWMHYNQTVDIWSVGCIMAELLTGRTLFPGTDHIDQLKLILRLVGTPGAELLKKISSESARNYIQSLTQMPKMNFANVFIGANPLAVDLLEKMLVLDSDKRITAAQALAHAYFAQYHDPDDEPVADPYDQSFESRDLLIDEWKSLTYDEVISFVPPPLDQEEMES

Prompt: Give recorded IC50. COCC(=O)Nc1cc(COc2ccc(NC(=O)Nc3cc(C(C)(C)C)nn3-c3ccc(CO)cc3)c3ccccc23)ccn1 [Example 49]
Response: < 10 nM

Prompt: Give recorded IC50. Cc1ccc(-n2nc(C(C)(C)C)cc2NC(=O)Nc2ccc(OCc3ccnc(NC(=O)N4CCOCC4)c3)c3ccccc23)cc1 [Example 13]
Response: < 10 nM

Prompt: Give recorded IC50. COCC(=O)Nc1cc(OCCc2ccc(NC(=O)Nc3cc(C(C)(C)C)nn3-c3ccc(C)cc3)c3ccccc23)ccn1 [Example 43]
Response: < 500 nM

Prompt: Give recorded IC50. Cc1ccc(-n2nc(C(C)(C)C)cc2NC(=O)Nc2ccc(OCc3ccnc(NC(=O)N4CCN(C)CC4)c3)c3ccccc23)cc1 [Example 12]
Response: < 10 nM

Prompt: Give recorded IC50. Cc1ccc(-n2nc(C(C)(C)C)cc2NC(=O)Nc2ccc(OCc3ccnc(NC(=O)CSCCN4CCOCC4)c3)c3ccccc23)cc1 [Example 31]
Response: < 500 nM

Continuing:
Prompt: Give recorded IC50. Cc1ccc(-n2nc(C(C)(C)C)cc2NC(=O)Nc2ccc(OCc3ccnc(NC(=O)CCS(C)(=O)=O)c3)c3ccccc23)cc1 [Example 17]
Response: < 10 nM

Prompt: Give recorded IC50. CN[C@@H](C)C(=O)Nc1cc(COc2ccc(NC(=O)Nc3cc(C(C)(C)C)nn3-c3ccc(C)cc3)c3ccccc23)ccn1 [Example 9]
Response: < 10 nM

Prompt: Give recorded IC50. COCC(=O)Nc1cc(CC(C)Oc2ccc(NC(=O)Nc3cc(C(C)(C)C)nn3-c3ccc(C)cc3)c3ccccc23)ccn1 (centres unmarked) [Example 46]
Response: < 500 nM

Value source: patent US8299073B2
